Experimental system: Dual specificity protein kinase CLK2 (Homo sapiens)
Sequence (P49760 whole entry): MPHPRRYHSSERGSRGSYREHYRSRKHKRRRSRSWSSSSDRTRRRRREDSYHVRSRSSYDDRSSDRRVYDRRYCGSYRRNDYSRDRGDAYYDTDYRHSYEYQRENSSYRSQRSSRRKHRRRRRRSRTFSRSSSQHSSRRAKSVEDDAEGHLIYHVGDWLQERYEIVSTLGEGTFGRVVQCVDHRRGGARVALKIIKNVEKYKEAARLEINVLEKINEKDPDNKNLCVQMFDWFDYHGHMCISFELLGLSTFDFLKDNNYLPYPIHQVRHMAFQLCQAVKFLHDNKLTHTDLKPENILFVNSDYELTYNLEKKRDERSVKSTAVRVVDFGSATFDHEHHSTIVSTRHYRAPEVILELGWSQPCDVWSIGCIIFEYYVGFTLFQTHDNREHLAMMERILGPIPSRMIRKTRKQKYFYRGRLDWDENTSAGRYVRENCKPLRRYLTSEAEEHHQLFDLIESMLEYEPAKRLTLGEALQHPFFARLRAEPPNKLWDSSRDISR
pIC50: −log10 of the molar value.
Experimental readout: pIC50

Worked cases, pIC50 given:
>>> df
                                   molecule                       experimental_system  data_value
0  O=C1NC(NC23CC4CC(CC(C4)C2)C3)=N/C1=C\c1ccc2[nH]cnc2c1  Dual specificity protein kinase CLK2 (Homo sapiens)        8.70
1  CN1CCC(CNC2=N/C(=C\c3ccc4ncsc4c3)C(=O)N2)CC1  Dual specificity protein kinase CLK2 (Homo sapiens)        5.44
2  O=C1NC(N[C@@H](CO)CC2CCCCC2)=N/C1=C\c1ccc2ncsc2c1  Dual specificity protein kinase CLK2 (Homo sapiens)        7.00
3  CC(C)(C)NC(=O)OC12CC3CC(CC(NC4=N/C(=C\c5ccc6ncsc6c5)C(=O)N4)(C3)C1)C2  Dual specificity protein kinase CLK2 (Homo sapiens)        7.46
4  CC1(C)C2CCC1(C)[C@H](NC1=N/C(=C\c3ccc4ncsc4c3)C(=O)N1)C2 (stereo partly specified)  Dual specificity protein kinase CLK2 (Homo sapiens)        7.77
5  O=C1NC(NC2CCCCC2)=N/C1=C\c1ccc2[nH]cnc2c1  Dual specificity protein kinase CLK2 (Homo sapiens)        5.86
6  Cn1ccc(NC2=N/C(=C\c3ccc4ncsc4c3)C(=O)N2)n1  Dual specificity protein kinase CLK2 (Homo sapiens)        6.95
7   O=C1NC(NCc2cccnc2)=N/C1=C\c1ccc2ncsc2c1  Dual specificity protein kinase CLK2 (Homo sapiens)        7.28

I. O=C1NC(NC2CCCCC2)=N/C1=C\c1ccc2nnsc2c1
II. CC(C)(C)C(=O)OC12CC3CC(CC(NC4=N/C(=C\c5ccc6ncsc6c5)C(=O)N4)(C3)C1)C2
Query block: Pick the one with the larger pIC50: I vs II Answer format: the label of the selected item.
Result block: II

A. O=C1NC(N[C@@H]2CCCOC2)=N/C1=C\c1ccc2ncsc2c1
B. O=C1NC(NC2C3CC4CC(C3)CC2C4)=N/C1=C\c1ccc2ncsc2c1 (stereo unspecified)
Query block: Looking at recorded values for pIC50, does A or B come in lower? Refer to your chosen entry by its label in the reply.
Result block: A

a. CC(C)[C@@H]1CC[C@@H](C)C[C@H]1NC1=N/C(=C\c2ccc3ncsc3c2)C(=O)N1
b. CC1(C)CCC(NC2=N/C(=C\c3ccc4ncsc4c3)C(=O)N2)CO1 (racemic)
Query block: Identify the entry with the larger pIC50. Options: a and b I would appreciate it if you answered with the label of your choice.
Result block: b
(b: 6.99, a: 6.68)

a. O=C1NC(Nc2cccc(C(F)(F)F)c2)=N/C1=C\c1ccc2ncsc2c1
b. O=C1NC(NC23CC4CC(CC(C4)C2)C3)=N/C1=C\c1ccc2c(c1)CCO2
c. Cn1cnc2ccc(/C=C3\N=C(NC4CCCCCC4)NC3=O)cc21
d. CN1CCN(c2ccc(NC3=N/C(=C\c4ccc5c(c4)OCO5)C(=O)N3)cc2)CC1
Query block: Sort (4 molecules) by pIC50: min first. Ranked list of labels, please, in the requested order.
Result block: a, c, d, b
(a: 6.16, c: 6.99, d: 7.46, b: 7.77)
